System: CCRIS mutagenicity, Ames/micronucleus/aberration tests
Protocol: CCRIS mutagenicity studies
Assay Setup: Test System: E. COLI; Strain/Indicator: WP2 UVRA; Metabolic Activation: RAT, LIVER, S-9; Method: STANDARD PLATE
Active and inactive are the calls of the source. The rule behind the calls is not given here.
Outcomes: active, inactive

Smiles Structure	Assay System	Assigned Class
COc1ccc(C)cc1N	CCRIS mutagenicity, Ames/micronucleus/aberration tests	inactive
O=c1[nH]cc(N(CCCl)CCCl)c(=O)[nH]1	CCRIS mutagenicity, Ames/micronucleus/aberration tests	active
Cc1noc(NS(=O)(=O)c2ccc(N)cc2)c1C	CCRIS mutagenicity, Ames/micronucleus/aberration tests	inactive
Oc1cccc2cc3cccc(O)c3c(O)c12	CCRIS mutagenicity, Ames/micronucleus/aberration tests	inactive
COc1ccc(N)c(C)c1	CCRIS mutagenicity, Ames/micronucleus/aberration tests	inactive
Cc1ccc2cc3c(ccc4ccccc43)c3c2c1CC3	CCRIS mutagenicity, Ames/micronucleus/aberration tests	inactive

====

System: CCRIS mutagenicity, Ames/micronucleus/aberration tests
Protocol: CCRIS mutagenicity studies
Assay Setup: Test System: AMES SALMONELLA TYPHIMURIUM; Strain/Indicator: TA100; Metabolic Activation: S-9; Method: PREINCUBATION
Activity calls are given as the source filed them. The rule behind the calls is not given here.
Outcomes: active, inactive

Molecule	Assay System	Assigned Class
C=CC(O)C=C	CCRIS mutagenicity, Ames/micronucleus/aberration tests	active
O=C(O)C[C@H](O)C[C@H](O)/C=C/c1c(C2CC2)nc2ccccc2c1-c1ccc(F)cc1	CCRIS mutagenicity, Ames/micronucleus/aberration tests	inactive
Cc1c(N)nc(C(CC(N)=O)NCC(N)C(N)=O)nc1C(=O)NC(C(=O)NC(C)C(O)C(C)C(=O)NC(C(=O)NCCc1nc(-c2nc(C(=O)NCCC[S+](C)C)cs2)cs1)C(C)O)C(O[C@@H]1O[C@@H](CO)[C@@H](O)[C@H](O)[C@@H]1O[C@H]1O[C@H](CO)[C@@H](O)[C@H](OC(N)=O)[C@@H]1O)c1cnc[nH]1 (some centres undefined)	CCRIS mutagenicity, Ames/micronucleus/aberration tests	inactive
c1ccc2ncccc2c1	CCRIS mutagenicity, Ames/micronucleus/aberration tests	active

====

Test system: CCRIS mutagenicity, Ames/micronucleus/aberration tests
Protocol: CCRIS mutagenicity studies
Assay Setup: Test System: AMES SALMONELLA TYPHIMURIUM; Strain/Indicator: TA97; Metabolic Activation: NONE; Method: PREINCUBATION
Active and inactive are the calls of the source. How the calls were made is not given here.
Outcomes: active, inactive

Compound	Assigned Class
O=Cc1ccc(Cl)c(Cl)c1	inactive
CC(COC(=O)c1ccccc1)(COC(=O)c1ccccc1)COC(=O)c1ccccc1	inactive
O=C1C=CC(=O)c2c(O)c(Cl)c(Cl)c(O)c21	inactive
CCCC(=O)OCCC(C)C	inactive
Cc1ccc(S(=O)(=O)NC2CCCCC2)cc1	inactive
O=c1c2ccc3c4c(ccc(c24)c2nc4ccccc4n12)c(=O)n1c2ccccc2nc31	active
CC(CC(=O)O)C(=O)O (stereo not drawn)	inactive
Nc1cccc(O)c1	inactive

====

Tested on: CCRIS mutagenicity, Ames/micronucleus/aberration tests
Protocol: CCRIS mutagenicity studies
Assay Setup: Test System: AMES SALMONELLA TYPHIMURIUM; Strain/Indicator: TA1535; Metabolic Activation: NONE; Method: PREINCUBATION
Activity calls are given as the source filed them. The rule behind the calls is not given here.
Outcomes: true (active), false (inactive)

Compound	Assigned Class
Nc1ccc(S(=O)(=O)O)c2ccccc12	false
O=S(=O)(O)c1ccc(N=Nc2c(O)ccc3cc(S(=O)(=O)O)ccc23)cc1	false
[O]=[Mo](=[O])=[O]	false
CN(C)CCN(C)C	false
NC1CCC(CC2CCC(N)CC2)CC1 (stereo not drawn)	false
COC(=O)C1=C(C)NC(C)=C(C(=O)OCCc2ccc(N3CCN(C(c4ccccc4)c4ccccc4)CC3)cc2)C1c1cccc([N+](=O)[O-])c1 (stereo not drawn)	false
OCC(Br)CBr (stereo not drawn)	true
Cc1ccc(S(=O)(=O)NC2CCCCC2)cc1	false
CC(C)N	false
O=[N+]([O-])c1cccc2cccc([N+](=O)[O-])c12	false
c1ccccc1	false
N[C@@H](CCC(=O)NNc1ccc(CO)cc1)C(=O)O	false
CCc1ccccc1	false
CCCCC/C=C\C/C=C\CCCCCCCC(=O)O	false
Cc1noc(NS(=O)(=O)c2ccc(N)cc2)c1C	false
CC(C)CC(C)Nc1ccc(Nc2ccccc2)cc1 (stereo not drawn)	false
CC1(C)S[C@@H]2[C@H](NC(=O)COc3ccccc3)C(=O)N2[C@H]1C(=O)O	false
[CH3][Hg][Cl]	false
CCC(C)C(C)CO (stereo not drawn)	false
CCOC(/C=C(\C)CCC=C(C)C)OCC	false
O=C(O)/C=C/C(=O)O	false
CCCNC(=O)NS(=O)(=O)c1ccc(Cl)cc1	false
c1ccc(Oc2ccccc2)cc1	false
N#CCCC#N	false
C[n+]1c2ccccc2nc2ccccc21	false
C[N+](=O)[O-]	false
Cc1ccc(CC2CO2)cc1 (stereo not drawn)	true
CCCCCCOC(=O)c1ccccc1C(=O)OCCCCCC	false
c1ccc2c(c1)Nc1ccccc1S2	false
Nc1cc([N+](=O)[O-])cc(Cl)c1O	false
O=C1c2ccccc2C(=O)c2ccccc21	false
Cc1ccc(Br)cc1	false
Clc1cc(Cl)c(Cl)c(Cl)c1Cl	false
CC(N)CN (stereo not drawn)	false
O=C(O)c1cc2ccccc2cc1O	false
O=C(O)C[C@H](O)C[C@H](O)/C=C/c1c(C2CC2)nc2ccccc2c1-c1ccc(F)cc1	false
O=C1OC(c2ccc(O)cc2)(c2ccc(O)cc2)c2ccccc21	false
C[CH2][Pb]([Cl])([CH2]C)[CH2]C	false
CC=C(Cl)Cl	false
Cc1ccc(OCC2CO2)cc1 (stereo not drawn)	true
CN(c1nccc(=O)[nH]1)C1CCN(c2nc3ccccc3n2Cc2ccc(F)cc2)CC1	false
O=C/C=C/c1ccco1	false
CC(C)(Cl)[N+](=O)[O-]	false
O=C1C=CC(=O)C=C1	false
Brc1ccccc1-c1ccccc1	false
COC1=CC=CC=CC1	false
OCC1CO1 (stereo not drawn)	true
C/C=C1\CC2C=CC1C2 (stereo not drawn)	false
C=CC(=O)OCCOCCOCCOCCOC(=O)C=C	false
Clc1c(Cl)c(Cl)c2ccccc2c1Cl	false
Nc1cc(S(=O)(=O)O)cc2cc(S(=O)(=O)O)cc(O)c12	false
CN(C)C	false
CCC(C)Nc1ccc(NC(C)CC)cc1 (stereo not drawn)	false
c1ccc2occc2c1	false
CN(C)c1ccccc1	false
O=Cc1ccc(Cl)c(Cl)c1	false
O=C1C=CC(=O)c2ccccc21	false
COc1ccc(CC2CO2)cc1OC (stereo not drawn)	true
